All values here come from paper PMC2651776.

target: MepR (Staphylococcus aureus, UniProt A0A0H3JPT9 1-139); assay: fluorescence polarization
readout: Kd
The number alone won't do; follow it with the unit.

Look over these answered cases.
binder	Kd
mepA 44 bp full site (dsDNA) DNA 1: TTATAGTTAGATATCTAATTGTTAGTAAGCTAATTATTGGAAAA DNA 2: TTTTCCAATAATTAGCTTACTAACAATTAGATATCTAACTATAA	6.3 nM
mepR 26 bp site (dsDNA) DNA 1: TATTTAGTTAGACATCTAACGAATGG DNA 2: CCATTCGTTAGATGTCTAACTAAATA	24.3 nM
mepA 22 bp (3'-truncated) (dsDNA) DNA 1: TTATAGTTAGATATCTAATTGT DNA 2: ACAATTAGATATCTAACTATAA	46.4 nM

Next, consider the following binder.
If you can, please state the reported Kd value of mepA 26 bp (3'-truncated) (dsDNA) DNA 1: TTATAGTTAGATATCTAATTGTTAGT DNA 2: ACTAACAATTAGATATCTAACTATAA .
15.3 nM
